Target: Adenosine receptor A2b (Homo sapiens, UniProt P29275)
Sequence (P29275 whole entry): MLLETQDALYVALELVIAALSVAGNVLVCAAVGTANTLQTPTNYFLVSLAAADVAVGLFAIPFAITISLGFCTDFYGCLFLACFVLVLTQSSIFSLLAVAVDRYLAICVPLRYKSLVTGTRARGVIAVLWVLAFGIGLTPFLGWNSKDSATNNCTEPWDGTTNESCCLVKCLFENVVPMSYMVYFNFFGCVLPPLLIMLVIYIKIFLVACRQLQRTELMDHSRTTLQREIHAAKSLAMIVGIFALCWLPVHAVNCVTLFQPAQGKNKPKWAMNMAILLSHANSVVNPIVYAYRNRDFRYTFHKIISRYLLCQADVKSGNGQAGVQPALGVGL
Test: biochemical
Description: Displacement of [3H]- DPCPX from human adenosine A2B receptor expressed in HEK293 cells
pKi: −log10 of the molar value.
Value Type: pKi

INSERT INTO measurements (structure_string, experimental_value) VALUES
  ('Nc1nc2c(cnn2CCc2ccccc2)c2nc(-c3ccccc3)nn12', '< 6.00');

---

biological target: Adenosine receptor A2a (Homo sapiens, UniProt P29274)
Sequence (P29274 whole entry): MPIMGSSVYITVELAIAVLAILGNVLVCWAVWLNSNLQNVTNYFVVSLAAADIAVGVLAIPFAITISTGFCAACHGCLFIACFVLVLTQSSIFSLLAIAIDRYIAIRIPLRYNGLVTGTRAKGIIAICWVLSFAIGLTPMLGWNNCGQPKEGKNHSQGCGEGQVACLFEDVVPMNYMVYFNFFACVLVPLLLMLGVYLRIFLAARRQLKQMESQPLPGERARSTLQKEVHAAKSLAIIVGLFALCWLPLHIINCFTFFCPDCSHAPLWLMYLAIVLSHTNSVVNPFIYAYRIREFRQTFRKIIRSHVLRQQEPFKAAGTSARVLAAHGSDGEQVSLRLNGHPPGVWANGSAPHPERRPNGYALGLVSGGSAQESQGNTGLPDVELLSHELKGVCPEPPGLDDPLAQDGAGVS
Value Type: IC50 (nM)

INSERT INTO results (structure_string, value_type, experimental_value) VALUES
  ('CCCSc1c2c(nc(N)n3nc(-c4ccco4)nc23)nn1C', 'IC50', 14.8);

---

target: Adenosine receptor A2b (Homo sapiens, UniProt P29275); test: biochemical
Description: Displacement of [3H]- DPCPX from human adenosine A2B receptor expressed in HEK293 cells
pKi: −log10 of the molar value.
Entries and their measured pKi follow.
Value Type: pKi

INSERT INTO results (structure_string, experimental_target, value_type, experimental_value) VALUES
  ('Nc1nc2c(cnn2CCc2ccccc2)c2nc(-c3ccc(CN4CCOCC4)o3)nn12', 'Adenosine receptor A2b (Homo sapiens, UniProt P29275)', 'pKi', '< 6.00'),
  ('Cn1nc2nc(N)n3nc(-c4ccco4)nc3c2c1Nc1ccc(O)cc1', 'Adenosine receptor A2b (Homo sapiens, UniProt P29275)', 'pKi', '< 6.00'),
  ('CSc1c2c(nc(N)n3nc(-c4ccc(CN5CCN(C)CC5)o4)nc23)nn1C', 'Adenosine receptor A2b (Homo sapiens, UniProt P29275)', 'pKi', '< 6.00'),
  ('CN1CCN(Cc2ccc(-c3nc4c5cnn(CCc6ccccc6)c5nc(N)n4n3)o2)CC1', 'Adenosine receptor A2b (Homo sapiens, UniProt P29275)', 'pKi', '< 6.00'),
  ('CSc1c2c(nc(NC(=O)Cc3ccc(CC(C)C)cc3)n3nc(-c4ccco4)nc23)nn1C', 'Adenosine receptor A2b (Homo sapiens, UniProt P29275)', 'pKi', 6.74);

---

biological target: Adenosine receptor A2a (Homo sapiens); assay: biochemical
Value Type: Ki

INSERT INTO results (structure_string, experimental_target, value_type, experimental_value) VALUES
  ('COc1ccc(NC(=O)Nc2nc3nn(C)c(N4CCN(C)CC4)c3c3nc(-c4ccco4)nn23)cc1', 'Adenosine receptor A2a (Homo sapiens)', 'Ki', '> 1000 nM'),
  ('CSc1c2c(nc(N)n3nc(-c4ccc(CN5CCN(C)CC5)o4)nc23)nn1C', 'Adenosine receptor A2a (Homo sapiens)', 'Ki', '> 1000 nM'),
  ('Cn1nc2nc(N)n3nc(-c4ccco4)nc3c2c1Nc1ccc(O)cc1', 'Adenosine receptor A2a (Homo sapiens)', 'Ki', '> 1000 nM'),
  ('CCNc1c2c(nc(NC(=O)Nc3ccc(OC)cc3)n3nc(-c4ccco4)nc23)nn1C', 'Adenosine receptor A2a (Homo sapiens)', 'Ki', '21 nM'),
  ('Nc1nc2c(cnn2CCc2ccccc2)c2nc(-c3ccccc3)nn12', 'Adenosine receptor A2a (Homo sapiens)', 'Ki', '> 1000 nM');

Data credit: ChEMBL document CHEMBL1136743
